Experiment: Fraction unbound in human plasma
Format: ADME, cell-free
OBSERVED PROPERTY: fraction unbound
A bare number is all that is needed in reply.

Measured fraction unbound of Cc1sc2ncnc(N3CCC(C(=O)Nc4ccc(S(N)(=O)=O)cc4)CC3)c2c1C : 0.002

###

# key: entry, value: Kp at 0.25 h
Assay: Ratio of brain to plasma partition coefficient in Sprague-Dawley rat at 0.2 to 0.25 mg/kg, iv administered as cassette dose after 0.25 hrs
Type: ADME, organism-based
Settings: Sprague-Dawley, brain and plasma

CCCN(c1ccc(C)nc1)C1CCN(c2ncnc3sc(C)c(C)c23)CC1    0.2

Measured Kp at 0.25 h of CCCCN(c1ccc(C)nc1)C1CCN(c2ncnc3sc(C)c(C)c23)CC1 : 0.2

###

Molecular target: Cytochrome P450 1A2 (Homo sapiens, UniProt P05177)
Sequence (P05177 whole entry): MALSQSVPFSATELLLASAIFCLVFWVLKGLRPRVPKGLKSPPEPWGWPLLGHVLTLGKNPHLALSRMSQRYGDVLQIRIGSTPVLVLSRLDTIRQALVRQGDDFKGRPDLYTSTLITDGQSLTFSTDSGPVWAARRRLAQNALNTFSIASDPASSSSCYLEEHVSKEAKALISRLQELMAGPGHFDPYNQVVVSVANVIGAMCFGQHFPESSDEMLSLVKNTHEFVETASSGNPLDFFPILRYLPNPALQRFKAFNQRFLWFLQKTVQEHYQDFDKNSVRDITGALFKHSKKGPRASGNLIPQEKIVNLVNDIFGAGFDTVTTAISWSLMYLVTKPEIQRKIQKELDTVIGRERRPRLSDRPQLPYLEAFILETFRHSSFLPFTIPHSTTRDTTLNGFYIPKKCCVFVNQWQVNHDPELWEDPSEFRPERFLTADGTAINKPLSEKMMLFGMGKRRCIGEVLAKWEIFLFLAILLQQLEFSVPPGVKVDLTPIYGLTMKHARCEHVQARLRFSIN
pIC50: −log10 of the molar value.
OBSERVED PROPERTY: pIC50

The compound Cc1sc2ncnc(N3CCC(C(=O)Nc4ccc(S(N)(=O)=O)cc4)CC3)c2c1C , tested on Cytochrome P450 1A2 (Homo sapiens, UniProt P05177), showed pIC50 of < 4.70

###

Test: Ratio of unbound brain-to-plasma concentration in Sprague-Dawley rat at 0.2 to 0.25 mg/kg, iv administered as cassette dose after 0.25 hrs
Assay type: ADME, organism-based
met means recorded K(p,uu,brain) is 0.7 or above; not met means it is below 0.7.

Worked set:
Cc1ccc2ncnc(N3CCC(Oc4ccc(C)nc4)CC3)c2c1    not met
Cc1ncc(OC2CCN(c3ncnc4sc(C)c(C)c34)CC2)cn1    not met
Cc1sc2ncnc(N3CCC(C(=O)N4CCCC4)CC3)c2c1C    not met

Exam item: decide whether the reported K(p,uu,brain) for Cc1sc2ncnc(N3CCC(Oc4ccc(F)nc4)CC3)c2c1C is at least 0.7. not met

Exam item: decide whether the reported K(p,uu,brain) for Cc1ccc(OC2CCN(c3ncnc4ccc(F)cc34)CC2)cn1 is at least 0.7. met

###

# key: entry, value: Kp
Assay: Ratio of brain to plasma partition coefficient in Sprague-Dawley rat at 0.2 to 0.25 mg/kg, iv administered as cassette dose after 0.25 hrs
Type: ADME, organism-based
Details: brain, 0.25 h
A bare number is all that is needed in reply.

Measured Kp of Cc1sc2ncnc(N3CCC(C(=O)N4CC[C@H](F)C4)CC3)c2c1C : 0.17

Measured Kp of Cc1sc2ncnc(N3CCC(Oc4ccc(Cl)nc4)CC3)c2c1C : 2.56

Measured Kp of Cc1ccc2ncnc(N3CCC(Oc4ccc(C)nc4)CC3)c2c1 : 0.94

Measured Kp of Cc1sc2ncnc(N3CCC(Oc4ccc(F)nc4)CC3)c2c1C : 2.8

Measured Kp of Cc1sc2ncnc(N3CCC(C(=O)N4CCCC4)CC3)c2c1C : 0.45

Measured Kp of Cc1ncc(OC2CCN(c3ncnc4sc(C)c(C)c34)CC2)cn1 : 1.77

Measured Kp of Cc1ccc(OC2CCN(c3ncnc4sc(C)c(C)c34)CC2)cn1 : 1.16

Measured Kp of Cc1ccc(OC2CCN(c3cc(C)nc4ccc(F)cc34)CC2)cn1 : 21.4

###

Target: Cytochrome P450 3A4 (Homo sapiens, UniProt P08684)
Sequence (P08684 whole entry): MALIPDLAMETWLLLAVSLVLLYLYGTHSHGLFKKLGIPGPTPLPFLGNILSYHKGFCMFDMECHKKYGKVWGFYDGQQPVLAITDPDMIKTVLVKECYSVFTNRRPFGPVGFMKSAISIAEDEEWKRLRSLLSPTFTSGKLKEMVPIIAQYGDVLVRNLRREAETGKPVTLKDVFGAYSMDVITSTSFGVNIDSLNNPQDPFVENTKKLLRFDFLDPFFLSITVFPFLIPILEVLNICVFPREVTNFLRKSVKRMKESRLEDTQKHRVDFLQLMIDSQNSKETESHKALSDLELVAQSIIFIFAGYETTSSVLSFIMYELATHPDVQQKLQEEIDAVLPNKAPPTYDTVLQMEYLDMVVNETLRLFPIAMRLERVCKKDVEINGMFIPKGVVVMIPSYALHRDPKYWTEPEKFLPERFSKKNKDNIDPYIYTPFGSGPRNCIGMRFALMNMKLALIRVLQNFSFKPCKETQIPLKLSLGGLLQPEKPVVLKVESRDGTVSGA
pIC50: −log10 of the molar value.
OBSERVED PROPERTY: pIC50

The molecule Cc1sc2ncnc(N3CCC(C(=O)Nc4ccc(S(N)(=O)=O)cc4)CC3)c2c1C , tested on Cytochrome P450 3A4 (Homo sapiens, UniProt P08684), showed pIC50 of < 4.70
